# credit: ChEMBL document CHEMBL2331187

Test system: Human alphaherpesvirus 1
Assay: Antiviral activity against Herpes simplex virus 1 F infected in Vero cells assessed as inhibition of virus-induced cytopathogenicity by MTT assay
Format: functional, organism-based
Settings: Human alphaherpesvirus 1, strain F
OBSERVATION_TYPE: EC50 (nM)
Express it in nM; write the number only.

Return reported EC50; argument: "Nc1nc2c(ncn2COCCO)c(=O)[nH]1" 1700

###

Assay: Selectivity ratio of CC50 for MDCK cells to EC50 for Influenza B virus (B/Lee/40)
Type: ADME, cell-based
Conditions: dog, read-out: Ratio CC50/EC50
OBSERVATION_TYPE: selectivity ratio
Please give the numeric answer without any surrounding text.

Would you mind telling me what selectivity ratio value was observed for Cc1cc2c(cc1C)C(=O)C1(OC(=O)c3ccccc31)O2 (stereo unspecified) ? 30

###

Test: Cytotoxicity against MDCK cells after 3 days by fluorescein diacetate-based fluorimetric analysis
Type: cell-based, Canis lupus familiaris
Details: dog
OBSERVATION_TYPE: CC50 at 72 h (µM)
Dear colleague, please return just the value in µM, with no unit written.

Example compounds with recorded CC50 at 72 h:
compound="Cc1ccc(C)c2c1OC1(OC(=O)c3ccccc31)C2=O (stereo not drawn)" reported_measurement=187
compound="O=C1OC2(Oc3c(cccc3-c3ccccc3)C2=O)c2ccccc21 (stereo not drawn)" reported_measurement=29.2
compound="Cc1ccc2c(c1C)OC1(OC(=O)c3ccccc31)C2=O (stereo not drawn)" reported_measurement=370
compound="COc1cccc2c1OC1(OC(=O)c3ccccc31)C2=O (stereo not drawn)" reported_measurement=253
compound="O=C1OC2(Oc3c(ccc4ccccc34)C2=O)c2ccccc21 (stereo not drawn)" reported_measurement=40.4

Fill in: CC50 at 72 h of O=C1OC2(Oc3cc(-c4ccccc4)ccc3C2=O)c2ccccc21 (stereo not drawn) is ___ 36.3

Query: CC50 at 72 h; subject: O=C1OC2(Oc3ccc(Cl)cc3C2=O)c2ccccc21 (stereo not drawn) 153

###

Experiment: Selectivity ratio of CC50 for MDCK cells to EC50 for Influenza B virus (B/Taiwan/2/62)
Type: ADME, cell-based
Conditions: dog, read-out: Ratio CC50/EC50
OBSERVATION_TYPE: selectivity ratio
// no unit, no text: just the number

// returns reported selectivity ratio for input Cc1cc2c(cc1C)C(=O)C1(OC(=O)c3ccccc31)O2 (stereo unspecified) 30
